Data provenance: patent US20080200454A1

- MEASURED_ON: Recombinant human cathepsin S (CatS) (Homo sapiens)
- ASSAY_COMMENT: Recombinant human cathepsin S (CatS) inhibition assay, fluorogenic substrate Z-Valine-Valine-Arginine-AMC
Answer each item with its documented IC50.
Report the value in nM with no unit label.

Requested read-out: IC50. Entry: CS(=O)(=O)N1CCc2c(c(-c3ccc(C(F)(F)F)c(C#Cc4ccc(Cl)cc4)c3)nn2CC(O)CN2CCC(C(N)=O)CC2)C1 (stereo not drawn)
60

Suppose we examine the compound CS(=O)(=O)N1CCc2c(c(-c3ccc(Cl)c(C#Cc4nnc5n4CCNC5)c3)nn2CCCN2CCOCC2)C1 ; what IC50 value has been reported?
8520

Looking for the measured IC50 of CS(=O)(=O)N1CCc2c(c(-c3ccc(Cl)c(C#Cc4ccc5c(c4)CNCC5)c3)nn2CCCN2CCOCC2)C1 , can you help?
170

What does the data say about its IC50? Entry: C[C@H]1COCCN1C[C@H](O)Cn1nc(-c2ccc(Cl)c(C#Cc3ccc(CNCc4ccc(Cl)cc4)cc3)c2)c2c1CCN(C(N)=O)C2
70

Find the recorded IC50 belonging to Cc1ccccc1S(=O)(=O)NCCCc1cc(-c2nn(CCCN3CCC(N4CCCC4=O)CC3)c3c2CN(S(C)(=O)=O)CC3)ccc1Cl and report it.
1100

# input compound: NC(=O)C(=O)N1CCc2c(c(-c3ccc(Cl)c(C#Cc4ccc(CNCc5ccc(Cl)cc5)cc4)c3)nn2CCCN2CCCCC2)C1 ; wanted: its IC50
100

====

- MEASURED_ON: Recombinant human cathepsin S (CatS) (Homo sapiens, UniProt P25774)
- Sequence (P25774 115-331): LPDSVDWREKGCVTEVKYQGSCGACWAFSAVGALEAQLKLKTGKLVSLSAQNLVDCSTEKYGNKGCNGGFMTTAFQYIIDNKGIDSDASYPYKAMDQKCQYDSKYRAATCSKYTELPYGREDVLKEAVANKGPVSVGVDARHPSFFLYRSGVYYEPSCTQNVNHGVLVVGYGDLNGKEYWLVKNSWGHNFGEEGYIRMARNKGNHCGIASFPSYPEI
- ASSAY_COMMENT: Recombinant human cathepsin S (CatS) inhibition assay, fluorogenic substrate Z-Valine-Valine-Arginine-AMC
- MEASUREMENT_CONTEXT: CatS IC50
Please go through the items and note down their IC50.
Respond with the bare value in µM.

Please give the measured IC50 for this compound: CC1COCCN1CCCn1nc(-c2ccc(Cl)c(C#Cc3ccc(Cl)c(CNCc4ccccc4)c3)c2)c2c1CCN(C(N)=O)C2 (stereo in doubt)
0.02

I have this compound here, COC(=O)CNCc1cccc(C#Cc2cc(-c3nn(CCCN4CCOCC4)c4c3CN(S(C)(=O)=O)CC4)ccc2Cl)c1 , and I need its recorded IC50.
0.55

Record request: IC50 value, item CC(C)CNCc1cccc(C#Cc2cc(-c3nn(CCCN4CCOCC4)c4c3CN(S(C)(=O)=O)CC4)ccc2Cl)c1
0.44

Report IC50 for CC(C)(C)OC(=O)N1Cc2ccc(C#Cc3cc(-c4nn(CCCN5CCOCC5)c5c4CN(S(C)(=O)=O)CC5)ccc3Cl)cc2C1 please.
0.18

====

- MEASURED_ON: Recombinant human cathepsin S (CatS) (Homo sapiens, UniProt P25774)
- ASSAY_COMMENT: Recombinant human cathepsin S (CatS) inhibition assay, fluorogenic substrate Z-Valine-Valine-Arginine-AMC;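 note: Baculovirus-expressed CatS in pH 5.0 sodium acetate buffer with DTT and NaCl, fluorescence read each minute over 20 min, inhibition derived from rate slope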
- MEASUREMENT_CONTEXT: CatS IC50
EXPERIMENTAL_READOUT: IC50
Please answer using the number first and the unit second.

Any idea what its IC50 is? The compound is CS(=O)(=O)N1CCc2c(c(-c3ccc(Cl)c(C#Cc4ccc(CNC5CCCC5)cc4)c3)nn2CCCN2CCOCC2)C1
1450 nM

State the recorded IC50 for this entry: CN(C)Cc1cc(C#Cc2cc(-c3nn(CCCN4CCSCC4)c4c3CN(C(N)=O)CC4)ccc2Cl)ccc1Cl
30 nM

Request the reported IC50 associated with C[C@H]1COCCN1CCCn1nc(-c2ccc(Cl)c(C#Cc3ccc4c(c3)CN(C)CC4)c2)c2c1CCN(S(C)(=O)=O)C2
120 nM

Field request: IC50 | item: CC(=O)N1CCN(CCCn2nc(-c3ccc(Cl)c(C#Cc4ccc(CNCc5ccc(Cl)cc5)cc4)c3)c3c2CCN(S(C)(=O)=O)C3)CC1
150 nM

Would you kindly share the measured IC50 for CS(=O)(=O)N1CCc2c(c(-c3ccc(Cl)c(C#Cc4ccc(CN[C@H]5CCCc6ccccc65)cc4)c3)nn2CCCN2CCN(c3ccccn3)CC2)C1 ?
70 nM

Any idea what IC50 was measured for CC(C)(C)C1CCN(CCCn2nc(-c3ccc(Cl)c(C#Cc4ccc5c(c4)CNCC5)c3)c3c2CCN(S(C)(=O)=O)C3)CC1 ?
80 nM
